- methodDescription: chemical genetic growth profiling, strain panel (AID 1159580);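 further: tested at 20 µM; growth read once vehicle control cultures reached saturation at 30 °C; 1 = growth at the plate median or of vehicle wells; lower values mean less growth of the strain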
- conditionsUsed: S. cerevisiae deletion strains, growth OD, locus YAL026C, strain drs2, active compounds read low
In all, about 5,500 compounds went through this assay and about 2,000 (36%) were called active. Another 18% or so got no clear call; they are omitted. This is one part of the list.
reportedEndpoint: normalized growth
Just the number, please, no unit attached.

Example results:
{"columns": ["compound", "normalized growth"],
 "data": [
  ["CC(=O)O[C@H]1CC[C@]2(C)C3CC[C@@]4(C)C(CC5O[C@@]6(CCC(C)CO6)[C@@H](C)C54)C3CC[C@@H]2C1 (some centres not stated)", 1.02],
  ["CC(=O)O[C@H]1CC[C@]2(C)C3CC(=O)[C@]4(C)C(C(C)=O)=CCC4C3CC[C@H]2C1 (some centres not stated)", 0.997],
  ["CC(=O)OCC1=C(C(=O)O)N2C(=O)[C@@H](NC(=O)CCCC(N)C(=O)O)C2SC1 (some centres not stated)", 1.01],
  ["NC[C@H]1O[C@H](O[C@H]2[C@H](O)[C@@H](O[C@H]3O[C@H](CO)[C@@H](O)[C@H](N)[C@H]3O)[C@H](N)C[C@@H]2N)[C@H](N)C[C@@H]1O", 1.01],
  ["CN[C@@H]1[C@@H](O[C@H]2O[C@H](CO)[C@@H](N)[C@H](O)[C@H]2O)O[C@H]2C[C@@H](N)[C@H](O[C@H]3[C@H](O)[C@@H](O)[C@H](N)C[C@@H]3N)O[C@@H]2[C@@H]1O", 0.995]
]}

Supply reported normalized growth belonging to this compound: O=C(O)c1cc(=O)c2c(Cl)cc(Cl)cc2[nH]1 1.02

Supply reported normalized growth belonging to this compound: CC(=O)O[C@@H]1CC[C@]2(C)C3CC[C@]4(C)C(=O)CCC4C3CC[C@H]2C1 (some centres not stated) 0.967
